# system-name: PVNZ112.6-CBP (Parapoxvirus of red deer in New Zealand (PVNZ), strain RD86)
# assay: SPR; CBP-FLAG immobilised by amine coupling on a CM5 chip (300-400 RU, 10 mM sodium acetate pH 4.5); serial dilutions of mouse chemokine flowed in triplicate for 3 min, 10 min dissociation; 25°C; HBS-EP buffer (20 mM HEPES, 150 mM NaCl, 3.4 mM EDTA, 0.005% Polysorbate 20, pH 7.4); Biacore X100; global fit with a 1:1 binding model
Lab note: compare Kd with 0.6 nM, writing Met if less and Not met if equal or more.

Exam item: Just wondering, is Kd of recombinant mouse CCL22 (ligand) GPYGANVEDSICCQDYIRHPLPSRLVKEFFWTSKSCRKPGVVLITVKNRDICADPRQVWVKKLLHKLS below 0.6 nM?
Marked response: Met

Exam item: is_below(Kd, 0.6 nM) for recombinant mouse CXCL10 (ligand) IPLARTVRCNCIHIDDGPVRMRAIGKLEIIPASLSCPRVEIIATMKKNDEQRCLNPESKTIKNLMKAFSQKRSKRAP ?
Marked response: Not met

Exam item: For recombinant mouse CCL3 (ligand) APYGADTPTACCFSYSRKIPRQFIVDYFETSSLCSQPGVIFLTKRNRQICADSKETWVQEYITDLELNA , is the recorded Kd below the cut-off of 0.6 nM?
Marked response: Not met

Now take the following binder into account.
Exam item: Consider recombinant mouse CCL19 (ligand) GANDAEDCCLSVTQRPIPGNIVKAFRYLLNEDGCRVPAVVFTTLRGYQLCAPPDQPWVDRIIRRLKKSSAKNKGNSTRRSPVS . Does its Kd lie strictly below 0.6 nM?
Marked response: Met
